Values compiled from patent US20250026748A1.

target: PolQ ATPase enzyme (1-894) (Homo sapiens (Human), UniProt O75417); assay: Polθ ATPase enzymatic assay (0.5 nM enzyme concentration), ADP-Glo; type: biochemical; details: average IC50; 0.5 nM PolQ ATPase enzyme (1-894)
Sequence (O75417 1-894): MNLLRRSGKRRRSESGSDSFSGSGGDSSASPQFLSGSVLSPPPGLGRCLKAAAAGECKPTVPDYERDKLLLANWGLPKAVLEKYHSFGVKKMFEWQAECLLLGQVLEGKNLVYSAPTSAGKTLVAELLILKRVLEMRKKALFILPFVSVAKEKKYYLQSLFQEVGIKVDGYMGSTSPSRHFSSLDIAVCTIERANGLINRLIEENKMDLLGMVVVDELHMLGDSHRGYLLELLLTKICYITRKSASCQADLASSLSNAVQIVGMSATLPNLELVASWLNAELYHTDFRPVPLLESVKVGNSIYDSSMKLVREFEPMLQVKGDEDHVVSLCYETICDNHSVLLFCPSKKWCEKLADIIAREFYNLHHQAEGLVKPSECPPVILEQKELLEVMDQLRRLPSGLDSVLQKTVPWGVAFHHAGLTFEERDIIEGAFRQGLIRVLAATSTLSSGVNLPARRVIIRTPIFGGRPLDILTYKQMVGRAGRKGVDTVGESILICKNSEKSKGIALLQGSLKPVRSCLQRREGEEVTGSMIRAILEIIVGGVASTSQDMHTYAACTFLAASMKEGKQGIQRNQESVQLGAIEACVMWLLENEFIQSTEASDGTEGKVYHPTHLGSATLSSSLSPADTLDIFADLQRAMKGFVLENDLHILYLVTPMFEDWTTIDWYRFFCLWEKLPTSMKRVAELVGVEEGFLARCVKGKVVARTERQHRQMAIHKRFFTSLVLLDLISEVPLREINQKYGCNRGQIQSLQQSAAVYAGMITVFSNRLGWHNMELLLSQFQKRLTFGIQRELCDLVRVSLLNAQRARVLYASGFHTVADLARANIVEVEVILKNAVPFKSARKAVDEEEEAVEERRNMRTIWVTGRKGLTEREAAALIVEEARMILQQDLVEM
measurement type: IC50 (nM)

I. COc1cnc(C(F)F)cc1-c1cc(CO)ncc1C(=O)Nc1nnc(C#CC2CC2)s1
II. COc1cnc(Cl)cc1-c1cn(C)c(=O)cc1C(=O)Nc1nnc(C#CC2CC23CC3)s1 (stereo not shown)
// pick min by IC50: I , II Your answer should be the label of the entry you select.
II
(II: 0.76 nM, I: 1.2 nM)
